tested on: L929 cells; experiment: Inhibition of TNF-induced programmed necrosis of L929 cells (Cell Titer-Glo viability); type: cell-based, mouse; settings: L929 cells, stimulated with TNFα alone; read-out: EC50 (μM) L929 cells (mouse) TNFα
observable: EC50

[[record]]
compound = "Cn1ncc(C(=O)NCc2ccc(-n3cnc4c(N)ncnc43)cc2)c1Cc1ccccc1 [QY-10-40]"
tested_system = "L929 cells"
result = "0.00048 µM"

[[record]]
compound = "Cn1ncc(C(=O)NCc2ccc(-n3cnc4c(N)ncnc43)cc2)c1Cc1ccccc1 [QY-11-78]"
tested_system = "L929 cells"
result = "0.00987 µM"

[[record]]
compound = "Cn1nc(C(=O)NCc2ccc(-n3cnc4c(N)ncnc43)cc2)cc1Cc1ccccc1 [QY-8-31]"
tested_system = "L929 cells"
result = "> 10 µM"


API: the following record is the query input.
In plain terms, Cn1nc(C(=O)NCc2ccc(-n3cnc4c(N)ncnc43)cc2)cc1Cc1ccccc1 [QY-8-43] has a documented EC50 of 0.0111 µM
